meta.source: PubChem BioAssay AID463173

Tested on: Wild type
Measurement protocol: S. aureus survival, RN4220 and DeltatarO strains – OD600, teichoic acid synthesis inhibitors, primary screen (AID 463173)
Applied conditions: S. aureus RN4220 wild type/DeltatarO growth, OD600, 18 h, stronger effect = lower value, screened at 18.75 µg/mL (by protocol)
Among all 52,000 compounds or so, about 1,700 (3.3%) were called active. Shown is part of a subset that was picked to be rich in actives.
Recorded metric: survival

Known results for compounds:
O=C(CSc1nc2c([nH]c3ccccc32)c(=O)n1-c1cccc(Cl)c1)NCc1ccccc1 ... 78% (inactive)
COC(=O)c1cc(NC(=O)[C@H](CCS(C)(=O)=O)N2Cc3ccccc3C2=O)cc(C(=O)OC)c1 ... 87% (inactive)
O=C1CCSc2ccc(S(=O)(=O)Nc3ccc(Cl)c(C(F)(F)F)c3)cc2N1 ... 81% (inactive)
COc1ccc(-c2nc(C)c(CCNC(=O)c3cc(OC)c(OC)c(OC)c3)s2)cc1OC ... 57% (inactive)
CCOc1ccc(C(=O)NCCc2sc(-c3ccc(F)cc3)nc2C)cc1 ... 97% (inactive)
CCOC(=O)c1nnn(C(CC)C(=O)Nc2ccc(F)cc2)c1C(=O)OCC (centres undefined) ... 99% (inactive)

### Prompt Data request, read-out survival, for Cc1ccc2c(c1)C(C)(c1ccccc1)CC(C)(C)N2C(=O)c1ccc(F)cc1 (centres undefined)
### Response -2% (active)

### Prompt Next compound up: "Cc1cn(C)c(CC(=O)Nc2cccc(Cl)c2C)c1C(=O)O"
### Response 124% (inactive)

### Prompt Another compound to look at: "CCCCNC(=O)CCn1c(=O)c2ccccc2n(Cc2cccc(Cl)c2)c1=O"
### Response 94% (inactive)

### Prompt Another compound: CC1C(=O)Nc2ccc(S(=O)(=O)Nc3ccccc3Br)cc2NC1=O (centres undefined)
### Response 89% (inactive)

### Prompt Likewise for COc1ccc(C(=O)N2c3ccc(C)cc3C(C)(c3ccccc3)CC2(C)C)cc1 (centres undefined) ?
### Response 45% (inactive)

### Prompt Queued: "CCOC(=O)c1c(C)oc2ncnc(N3CCN(c4ccccc4)CC3)c12"
### Response 68% (inactive)

### Prompt Same question for "O=C(NCc1ccccc1)c1nc(S(=O)(=O)Cc2ccccc2)ncc1Cl" please.
### Response 42% (inactive)

### Prompt Entry to check: O=C(Nc1ccc(NC(=O)C2CC23CCC3)cc1)C1CC12CCC2 (centres undefined)
### Response 118% (inactive)
